- Experiment Description: Cytotoxicity against human BT549 cells after 48 hrs by MTT assay
- Assay type: functional, cell-based
- Test Conditions: BT-549, 48 h
Quantity Name: pIC50
Conceptually, pIC50 converts a concentration in mol/L into minus its log10.

| Compound | pIC50 |
| --- | --- |
| COc1cc(/C=C2\C(=O)Nc3ccccc32)ccc1OCC(=O)N1CCOCC1 | 5.05 |
| CCN(CC)CCNC(=O)c1c(C)[nH]c(/C=C2\C(=O)Nc3ccc(F)cc32)c1C [SUNITINIB] | 4.81 |

Task item: What does the data say about its pIC50? Entry: "COc1cc(/C=C2\C(=O)Nc3ccccc32)ccc1OCC(=O)N1CCc2ccccc21"
Reply: 5.14
